testSystem: UniProt:P25105
Sequence (P25105 whole entry): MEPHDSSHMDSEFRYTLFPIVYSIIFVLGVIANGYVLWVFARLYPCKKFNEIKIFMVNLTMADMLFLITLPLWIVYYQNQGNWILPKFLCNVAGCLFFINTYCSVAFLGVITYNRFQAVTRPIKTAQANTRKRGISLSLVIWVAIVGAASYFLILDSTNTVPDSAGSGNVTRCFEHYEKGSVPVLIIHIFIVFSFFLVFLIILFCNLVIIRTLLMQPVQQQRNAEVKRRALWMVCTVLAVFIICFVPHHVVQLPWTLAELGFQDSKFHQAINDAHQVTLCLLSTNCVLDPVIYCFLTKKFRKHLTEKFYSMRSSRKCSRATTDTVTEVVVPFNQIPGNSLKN
protocolSummary: Human Platelet PAF Receptor Assay test (Test A): inhibition of specific binding of [3H]-PAF to platelets
assaySetup: [3H]-PAF specific binding to human platelets, room temperature, one hour
pIC50: −log10 of the molar value.
valueKind: pIC50

I: CCCCCCCCCCCCCCCCCCOCCC1(COP(=O)([O-])OCC[n+]2ccsc2)CCC(=O)O1 (stereo not drawn) [Example 1]
II: CCCCCCCCCCCCCCCCCCOCC1(COP(=O)([O-])OCC[n+]2ccsc2)CCCO1 (stereo not drawn) [Example 2]
III: CCCCCCCCCCCCCCCCCCNC(=O)OCC1(COP(=O)([O-])OCC[n+]2ccsc2)CCCO1 (stereo not drawn) [Example 3]
Query :: Please rank these compounds by pIC50 in descending order. # format: label list in the order the request specifies
Result :: III, I, II
(III: 6.33, I: 5.74, II: 5.48)

Data provenance: patent US4619917A
